Give measured inhibition of growth at 10 µM for each item. Keep answers brief.
Method Description: Cytotoxicity against human SW620 cells at 10 uM after 48 hrs by SRB assay
Format: functional
Applied Conditions: SW-620, 48 h, read-out: GI
Numbers only, in %.

Some compounds with known inhibition of growth at 10 µM results, for comparison:
>>> readout_value("Cc1nc2cc(Nc3nc(Nc4ccc(F)cc4)nc(-c4ccccc4)n3)ccc2n1Cc1ccccc1")
15.4
>>> readout_value("Cc1nc2ccc(Nc3nc(NCCN4CCOCC4)nc(Nc4ccc(F)cc4)n3)cc2n1Cc1ccccc1")
57.6
>>> readout_value("Cc1nc2ccc(Nc3nc(Nc4ccc(F)cc4)nc(N4CCCCC4)n3)cc2n1Cc1ccccc1")
5.34
>>> readout_value("Cc1nc2cc(Nc3nc(Nc4ccc(F)cc4)nc(Nc4ccc(F)cc4)n3)ccc2n1Cc1ccccc1")
3.96

In the following, a different compound is considered.
## Input What value of inhibition of growth at 10 µM has been reported for the following compound? Cc1nc2ccc(Nc3nc(Cl)nc(Nc4ccc(F)cc4)n3)cc2n1Cc1ccccc1
## Output 17.2
